Value source: patent US20150073038A1

# Test system: ApoB in Hep3B cells
# experiment: In vitro gene silencing activity, formulation with UsiRNA against ApoB in Hep3B cells, quantitative RT-PCR
# Format: cell-based
# experimentalParameters: delivery molecule 50.00 mole %, CHOL 50.00 mole %, UsiRNA DX10008, Hep3B, 24 h
Kindly supply the reported In vitro Gene Knockdown % values for the records listed here.
Report the figure in % without appending any unit label.

**Query** // lookup In vitro Gene Knockdown % for CCCCC/C=C\C/C=C\CCCCCCCCNC(=O)C1CC(N(C)C)CN1C(=O)CCCCCCC/C=C\C/C=C\CCCCC (centres unmarked)
**Result** 62

**Query** // lookup In vitro Gene Knockdown % for CCCCC/C=C\C/C=C\CCCCCCCC(=O)NC(CN)C(=O)NCCCCCCCC/C=C\CCCCCCCC (centres unmarked)
**Result** 56

**Query** // lookup In vitro Gene Knockdown % for CCCCCC=CCC=CCCCCCCCC(=O)NC(CN(C)C)C(=O)NCCCCCCCCC=CCCCCCCCC (centres unmarked)
**Result** 88

**Query** // lookup In vitro Gene Knockdown % for CCCCCCCC/C=C\CCCCCCCCNC(=O)C(CN)NC(=O)CCCCCCC/C=C\CCCCCCCC (centres unmarked)
**Result** 73

**Query** // lookup In vitro Gene Knockdown % for CCCCC/C=C\C/C=C\CCCCCCCCNC(=O)C(CN(C)C)NC(=O)CCCCCCC/C=C\C/C=C\CCCCC (centres unmarked)
**Result** 19

---

# Tested on: ApoB in Hep3B cells
# experiment: In vitro gene silencing activity, formulation with UsiRNA against ApoB in Hep3B cells, quantitative RT-PCR
# Type: cell-based
# experimentalParameters: delivery molecule 66.66 mole %, CHOL 33.33 mole %, UsiRNA DX10008, Hep3B, 24 h
Kindly supply the reported In vitro Gene Knockdown % values for the records listed here.
Report the figure in % without appending any unit label.

**Query** // lookup In vitro Gene Knockdown % for CCCCC/C=C\C/C=C\CCCCCCCC(=O)NC(CN)C(=O)NCCCCCCCC/C=C\CCCCCCCC (centres unmarked)
**Result** 61

**Query** // lookup In vitro Gene Knockdown % for CCCCC/C=C\C/C=C\CCCCCCCCNC(=O)C(CN(C)C)NC(=O)CCCCCCC/C=C\C/C=C\CCCCC (centres unmarked)
**Result** 19

**Query** // lookup In vitro Gene Knockdown % for CCCCCCCC/C=C\CCCCCCCCNC(=O)C(CN)NC(=O)CCCCCCC/C=C\CCCCCCCC (centres unmarked)
**Result** 76

**Query** // lookup In vitro Gene Knockdown % for CCCCCC=CCC=CCCCCCCCC(=O)NC(CN(C)C)C(=O)NCCCCCCCCC=CCCCCCCCC (centres unmarked)
**Result** 91

**Query** // lookup In vitro Gene Knockdown % for CCCCC/C=C\C/C=C\CCCCCCCCNC(=O)C1CC(N(C)C)CN1C(=O)CCCCCCC/C=C\C/C=C\CCCCC (centres unmarked)
**Result** 53

---

# experiment: TNS dye assay for pKa
# Assay type: physicochemical
# experimentalParameters: liposomes of the lipid with TNS dye in universal buffer, pH 3, liposome test sample, pH 3.0 to 11.0, 30 min at 37° C.; read-out: pKa as measured by TNS dye assay
property: pKa

**Query** // lookup pKa for CCCCCCCC/C=C\CCCCCCCCNC(=O)C(CN)NC(=O)CCCCCCC/C=C\CCCCCCCC (stereo not shown)
**Result** 6

**Query** // lookup pKa for CCCCC/C=C\C/C=C\CCCCCCCCNC(=O)C(N)NC(=O)CCCCCCC/C=C\C/C=C\CCCCC (stereo not shown)
**Result** 4.9

**Query** // lookup pKa for CCCCC/C=C\C/C=C\CCCCCCCCNC(=O)C(CN(C)C)NC(=O)CCCCCCC/C=C\C/C=C\CCCCC (stereo not shown)
**Result** 5.8

**Query** // lookup pKa for CCCCC/C=C\C/C=C\CCCCCCCCNC(=O)C(CN)NC(=O)CCCCCCC/C=C\C/C=C\CCCCC (stereo not shown)
**Result** 7.6
